Data origin: ChEMBL document CHEMBL4130367

Entries annotated with measured pIC50
# System: PC-3
# METHOD SUMMARY: Cytotoxicity against human PC3 cells assessed as reduction in cell viability after 72 hrs by MTT assay
# Assay type: functional, cell-based
# MEASUREMENT CONDITIONS: PC-3, 72 h
pIC50: −log10 of the molar value.

SMILES NOTATION	SIGN	pIC50
COC(=O)[C@]1(C)CCC[C@]2(C)c3ccc(C(C)C)c(NC(=O)Cn4cc(-c5cccnc5)nn4)c3CC[C@@H]12	=	4.52
COC(=O)[C@]1(C)CCC[C@]2(C)c3ccc(C(C)C)c(NC(=O)Cn4cc(-c5cccc([N+](=O)[O-])c5)nn4)c3CC[C@@H]12	<	4.00
COC(=O)[C@]1(C)CCC[C@]2(C)c3ccc(C(C)C)c(N)c3CC[C@@H]12	=	4.60
COC(=O)[C@]1(C)CCC[C@]2(C)c3ccc(C(C)C)c(NC(=O)Cn4cc(C5CC5)nn4)c3CC[C@@H]12	=	4.91
COC(=O)[C@]1(C)CCC[C@]2(C)c3ccc(C(C)C)c(NC(=O)Cn4cc(CNc5nc(Cl)nc(Cl)n5)nn4)c3CC[C@@H]12	<	4.00
COC(=O)[C@]1(C)CCC[C@]2(C)c3ccc(C(C)C)c(NC(=O)Cn4cc(-c5cccc(F)c5)nn4)c3CC[C@@H]12	<	4.00
